Would you mind telling me the reported melting point of each entry?

Report melting point for every entry below.
1. Cc1cccc(-c2nc(-c3ccccc3Cl)sc2-c2ccnc(C)c2)c1
2. Cc1cc(-c2sc(-c3ccc(S(C)(=O)=O)cc3)nc2-c2ccc(F)cc2)ccn1
3. Cc1cc(C)cc(-c2nc(-c3ccc([S+](C)[O-])cc3)sc2-c2ccnc(C)c2)c1 (stereo not drawn)

Result:
1: 83 to 84 °C; 2: 190 to 192 °C; 3: 151 to 153 °C

###

result_type: melting point

Worked cases, melting point given:
compound	melting point
CC(=O)Nc1cc(-c2sc(C)nc2-c2cccc(Cl)c2)ccn1 [Example Compound 30-1]	112 to 115 °C
CCCc1nc(-c2cccc(Cl)c2)c(-c2ccnc(NC(=O)CC)c2)s1 [Example Compound 30-9]	103 to 104 °C
CCOC(=O)Cc1nc(-c2cccc(C)c2)c(-c2ccnc(N)c2)s1 [Example Compound 18-5]	128 to 129 °C
CCC(=O)Nc1cc(-c2sc(CC)nc2-c2cccc(Cl)c2)ccn1 [Example Compound 30-8]	132 to 133 °C

Report melting point for every entry below.
1. CCOC(=O)c1nc(-c2cccc(C)c2)c(-c2ccnc(C)c2)s1 [Example Compound 14-12]
2. CSc1ccc(-c2nc(-c3cccc(C)c3)c(-c3cc(C)nc(C)c3)s2)cc1 [Example Compound 16-3]

Result:
["97 to 98 °C", "112 to 114 °C"]

Report melting point for every entry below.
1. Cc1cc(C)cc(-c2nc(N)sc2-c2cc(C)nc(C)c2)c1 [Example Compound 7-7]
2. CCOC(=O)Cc1nc(-c2cccc(Cl)c2)c(-c2ccnc(NC(C)=O)c2)s1 [Example 103-2]
3. CCC(=O)Nc1cc(-c2sc(CC)nc2-c2ccccc2)ccn1 [Example 84-1]
4. COc1ccc(-c2nc(NC(=O)c3ccccc3)sc2-c2ccnc(N)c2)cc1 [Example Compound 51]
5. Cc1cc(C)cc(-c2nc(NC(=O)c3cccnc3)sc2-c2cc(C)nc(C)c2)c1 [Example Compound 42-2]

Result:
["256 to 258 °C", "99 to 100 °C", "139 to 140 °C", "219 to 222 °C", "267 to 268 °C"]
